Numbers sourced from patent US20190351049A1.

# Measured on: MERS RBD-hFc (MERS-CoV (isolate EMC/2012))
# Assay info: SPR (Biacore), hybridoma supernatant antibody captured, MERS RBD-hFc as analyte
Entries and their t½ values follow.
Quantity name: t½

1. H1M15289N (antibody, V domains shown) VH: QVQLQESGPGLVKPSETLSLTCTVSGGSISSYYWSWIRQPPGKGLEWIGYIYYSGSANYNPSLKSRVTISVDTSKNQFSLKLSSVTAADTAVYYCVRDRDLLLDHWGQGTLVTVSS VL: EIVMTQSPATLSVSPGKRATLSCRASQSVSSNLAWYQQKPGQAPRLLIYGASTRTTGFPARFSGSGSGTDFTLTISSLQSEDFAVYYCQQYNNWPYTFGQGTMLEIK = ≥ 1.92 h
2. H2aM15287N (antibody, V domains shown) VH: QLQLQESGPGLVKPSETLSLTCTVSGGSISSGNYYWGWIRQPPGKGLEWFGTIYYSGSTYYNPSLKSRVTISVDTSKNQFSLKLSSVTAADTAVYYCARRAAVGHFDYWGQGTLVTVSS VL: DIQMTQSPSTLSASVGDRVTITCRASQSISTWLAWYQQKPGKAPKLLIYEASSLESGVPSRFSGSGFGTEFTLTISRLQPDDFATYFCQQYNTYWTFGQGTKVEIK = ≥ 1.92 h
3. H2aM15278N (antibody, V domains shown) VH: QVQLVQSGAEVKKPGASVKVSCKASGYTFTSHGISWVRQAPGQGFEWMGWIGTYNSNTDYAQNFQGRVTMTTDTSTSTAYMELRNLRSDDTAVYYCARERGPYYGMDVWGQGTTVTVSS VL: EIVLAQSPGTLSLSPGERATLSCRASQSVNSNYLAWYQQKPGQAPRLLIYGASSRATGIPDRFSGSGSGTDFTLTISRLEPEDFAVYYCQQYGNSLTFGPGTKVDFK = 0.225 h
